Test: CHO cell viability loss – luminescence, single concentration, cytotoxicity control for TLR9-MyD88 binding inhibitor project (AID 588336)
Details: TLR9-MyD88 CHO cells cytotoxicity, at 4.98 µM
Some of the results follow. Activity calls are given as the source filed them. Cut-off read from the data, not from the text of the source: active = inhibition above about 11%; inactive = the rest.
Allowed answers: active, inactive

Study these solved cases before continuing.
>>> label("Cc1cccc(CS(=O)(=O)c2ncc(Cl)c(C(=O)Nc3ccc(F)cc3)n2)c1")
"active"
>>> label("CNC(=S)N/N=C/c1ccc(OCc2ccccc2)c(Br)c1")
"active"
>>> label("COc1ccccc1N1N=C(c2cccs2)CC1c1ccccc1 (stereo unspecified)")
"inactive"
>>> label("Cc1cccc(NC(=O)c2nc(S(=O)(=O)Cc3ccccc3)ncc2Cl)c1")
"active"

// return assay outcome for CCN(CC)CCCC(C)n1c2nc(=O)[nH]c(=O)c-2nc2cc(Cl)ccc21 (stereo unspecified)
inactive

Identify the outcome logged in this assay for the molecule shown: O=C1C(Cl)=C(Oc2ccccc2)C(=O)c2ccccc21
active

###

Assay: VP16 transactivation inhibitors, counter-screen for SRC1 inhibitor project, cell-based, luminescence, high throughput (AID 588824)
Conditions: cell-based VP16 transactivation luciferase luminescence; at 3.6 µM; hits give high values
Where inhibition equals or exceeds 50%, the correct label is Criterion met; where it does not, the label is Criterion not met.

Illustrative cases are given below, each with its answer.
>>> label("COc1ccc(Nc2cc(C)nc(NCc3ccccc3)n2)cc1")
"Criterion not met"
>>> label("C(C#CCCCCCCCCC[n+]1ccccc1)#CCCCCCCCCC[n+]1ccccc1")
"Criterion met"
>>> label("CNc1snc(C)c1C(=O)OCC(=O)Nc1ccc(C)cc1F")
"Criterion not met"
>>> label("CN(C)S(=O)(=O)N1CCC(Oc2cccc(C(=O)NC3CCCCC3)c2)CC1")
"Criterion not met"
>>> label("Cn1c(/C=C/c2cccc([N+](=O)[O-])c2)c([N+](=O)[O-])c(=O)n(C)c1=O")
"Criterion not met"

# bool: inhibition of O=C(CCl)Nc1cc(SCC(O)CO)cc([N+](=O)[O-])c1 (configuration not stated) >= 50%
Criterion met

###

Give measured inhibition for each item. Keep answers brief.
Tested on: Epstein-Barr virus nuclear antigen 1 (EBNA-1), Human herpesvirus 4
Experiment: EBNA-1 DNA-binding inhibition, counter-screen for ZTA inhibitor project, biochemical, fluorescence polarization (AID 2362)
Conditions: at 14.8 µM, hits give high values
Some of the results follow. Active and inactive are the calls of the source. The rule behind the calls is not given here.

# example entries with known answers
>>> recorded_result("CCC(=O)Nc1ccc(Nc2nc(Cl)nc(Nc3ccc(NC(=O)CC)cc3)n2)cc1")
"5.66% (inactive)"
>>> recorded_result("C#CCOCCOCCOCCNc1nc(N2CCN(C(=O)CCCCCCCCCCNC(=O)[C@H]([C@@H](C)CC)n3cc(CCCCN=C(N)N)nn3)CC2)nc(N2CCN(C(=O)CCCCCCCCCCNC(=O)[C@H](CO)n3cc(CCCSC)nn3)CC2)n1")
"1.4% (inactive)"
>>> recorded_result("CCN1CCN(CCNC(=O)c2ccc(/C=C3/Sc4ccccc4N(Cc4cccc(C)c4)C3=O)cc2)CC1")
"1.16% (inactive)"
>>> recorded_result("CN1CCN(CCCNC(=O)c2ccc(/C=C3\\Oc4ccccc4N(Cc4ccc(Cl)cc4)C3=O)cc2)CC1")
"-1.35% (inactive)"

Each of the following entries comes with a recorded value; kindly state inhibition for each.
1. Cn1cnc2c1c(=O)n(Cc1ccccc1C#N)c(=O)n2C
2. COc1ccc(N2CCN(C(=O)CN3C(=O)COc4ccccc43)CC2)cc1

1: -2.72% (inactive); 2: -9.94% (inactive)
